Biological target: human TGFßRII (antigen of the Octet experiments) (human, UniProt P37173 23-166)
Sequence (P37173 23-166): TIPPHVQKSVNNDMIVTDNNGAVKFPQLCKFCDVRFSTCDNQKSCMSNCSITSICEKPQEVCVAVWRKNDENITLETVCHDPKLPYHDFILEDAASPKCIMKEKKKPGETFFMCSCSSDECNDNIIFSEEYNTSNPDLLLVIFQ
Assay: BLI (Octet)
quantity: Kd (pM)
Reply numerically in pM, unit not repeated.

1) H1.88 L1 XENP34544 (antibody, V domains shown) VH: QLQVQESGPGLVKPSETLSLTCTVSGGSISNSYFSWGWIRQPPGKGLEWIGSFYYGEKTYYNPSLKSRATISIDTSKSQFSLKLSSVTAADTAVYYCPRGPTMARGVIDSWGQGTLVTVSS VL: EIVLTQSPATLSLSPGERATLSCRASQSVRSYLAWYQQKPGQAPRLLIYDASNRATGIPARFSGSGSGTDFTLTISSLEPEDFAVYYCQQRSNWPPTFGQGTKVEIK	402

query: Note down Kd recorded for H1.106 L1 XENP34562 (antibody, V domains shown) VH: QLQVQESGPGLVKPSETLSLTCTVSGGSISNSYFSWGWIRQPPGKGLEWIGSFYYGEKTYYNPSLKSRATISIDTSKSQFSLKLSSVTAADTAVYYCPRGPTMIRGVIDSWGQGTMVTVSS VL: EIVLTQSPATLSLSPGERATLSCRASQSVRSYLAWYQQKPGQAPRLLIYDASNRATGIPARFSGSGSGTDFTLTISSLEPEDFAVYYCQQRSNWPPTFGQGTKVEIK
result: 624

query: Specify Kd for H1.81 L1 XENP34537 (antibody, V domains shown) VH: QLQVQESGPGLVKPSETLSLTCTVSGGSISNSYFSWGWIRQPPGKGLEWIGSFYYGEKTYYNPSLKSRATISIDTSKSQFSLKLSSVTAADTAVYYCPRGPNMIRGVIDSWGQGTLVTVSS VL: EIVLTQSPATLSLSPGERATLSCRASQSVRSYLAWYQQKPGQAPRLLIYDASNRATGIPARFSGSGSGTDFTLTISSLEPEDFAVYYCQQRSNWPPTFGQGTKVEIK and stop.
result: 300000
